Where do the numbers come from? From patent US20240391954A1.

# targetOrSystem: human MC4R receptor (human, UniProt P32245 1-332)
# Sequence (P32245 whole entry): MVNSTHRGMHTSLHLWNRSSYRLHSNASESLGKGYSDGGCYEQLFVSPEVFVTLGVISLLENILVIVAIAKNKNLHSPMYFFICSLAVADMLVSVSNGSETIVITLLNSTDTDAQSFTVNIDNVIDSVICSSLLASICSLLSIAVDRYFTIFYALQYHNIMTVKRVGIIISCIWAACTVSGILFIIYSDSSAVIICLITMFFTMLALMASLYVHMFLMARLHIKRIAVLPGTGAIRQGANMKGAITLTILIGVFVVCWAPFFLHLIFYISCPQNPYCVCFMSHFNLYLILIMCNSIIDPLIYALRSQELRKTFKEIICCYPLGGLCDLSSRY
# experimentalProtocol: cell-based or functional assay
Positions of bridges follow the written chain, without caps; N, C: chain ends. Non-standard residues stand in square brackets, D forms with d. Cit = NC(=O)NCCC[C@H](N)C(=O)O; Nle = CCCC[C@H](N)C(=O)O; Aib = CC(C)(N)C(=O)O
Lab note: compare MC4R selectivity vs MC3R with 5, writing met if less and not met if equal or more.

binder	category
Ac-RC[Aib]R[dF]RFC-NH2 (disulfide 2-8) [CTX-1601]	met
{CH2CO}-[Aib]H[dF]RFC-NH2 (thioether N-6; SMILES CC1(C)NC(=O)CSC[C@@H](C(N)=O)NC(=O)[C@H](Cc2ccccc2)NC(=O)[C@H](CCCNC(=N)N)NC(=O)[C@@H](Cc2ccccc2)NC(=O)[C@H](Cc2c[nH]cn2)NC1=O) [CTX-1650]	not met
Ac-RC[dA][Cit][dF]RWC-NH2 (disulfide 2-8) [CTX-1285]	met
{CH2CO}-[dA]R[dF]RWC-NH2 (thioether N-6; SMILES C[C@H]1NC(=O)CSC[C@@H](C(N)=O)NC(=O)[C@H](Cc2c[nH]c3ccccc23)NC(=O)[C@H](CCCNC(=N)N)NC(=O)[C@@H](Cc2ccccc2)NC(=O)[C@H](CCCNC(=N)N)NC1=O) [CTX-1642]	not met
Ac-R[Nle]C[Cit][dF]R[dW]C-NH2 (disulfide 3-8; SMILES CCCC[C@H](NC(=O)[C@H](CCCNC(=N)N)NC(C)=O)C(=O)N[C@H]1CSSC[C@@H](C(N)=O)NC(=O)[C@@H](Cc2c[nH]c3ccccc23)NC(=O)[C@H](CCCNC(=N)N)NC(=O)[C@@H](Cc2ccccc2)NC(=O)[C@H](CCCNC(N)=O)NC1=O) [CTX-1608]	met
{CH2CO}-GH[dF]RFC-NH2 (thioether N-6; SMILES N=C(N)NCCC[C@@H]1NC(=O)[C@@H](Cc2ccccc2)NC(=O)[C@H](Cc2c[nH]cn2)NC(=O)CNC(=O)CSC[C@@H](C(N)=O)NC(=O)[C@H](Cc2ccccc2)NC1=O) [CTX-1653]	not met
Ac-RCAR[dF]RWC-NH2 (disulfide 2-8; SMILES CC(=O)N[C@@H](CCCNC(=N)N)C(=O)N[C@H]1CSSC[C@@H](C(N)=O)NC(=O)[C@H](Cc2c[nH]c3ccccc23)NC(=O)[C@H](CCCNC(=N)N)NC(=O)[C@@H](Cc2ccccc2)NC(=O)[C@H](CCCNC(=N)N)NC(=O)[C@H](C)NC1=O) [CTX-1267]	met
{CH2CO}-[dA][Cit][dF]RWC-NH2 (thioether N-6; SMILES C[C@H]1NC(=O)CSC[C@@H](C(N)=O)NC(=O)[C@H](Cc2c[nH]c3ccccc23)NC(=O)[C@H](CCCNC(=N)N)NC(=O)[C@@H](Cc2ccccc2)NC(=O)[C@H](CCCNC(N)=O)NC1=O) [CTX-1643]	not met
Ac-RC[dA][Cit][dF]R[dW]C-NH2 (disulfide 2-8) [CTX-1286]	met
Ac-R[Nle]CR[dF]RWC-NH2 (disulfide 3-8; SMILES CCCC[C@H](NC(=O)[C@H](CCCNC(=N)N)NC(C)=O)C(=O)N[C@H]1CSSC[C@@H](C(N)=O)NC(=O)[C@H](Cc2c[nH]c3ccccc23)NC(=O)[C@H](CCCNC(=N)N)NC(=O)[C@@H](Cc2ccccc2)NC(=O)[C@H](CCCNC(=N)N)NC1=O) [CTX-1228]	not met
Ac-RC[dA]R[dF]RWC-NH2 (disulfide 2-8; SMILES CC(=O)N[C@@H](CCCNC(=N)N)C(=O)N[C@H]1CSSC[C@@H](C(N)=O)NC(=O)[C@H](Cc2c[nH]c3ccccc23)NC(=O)[C@H](CCCNC(=N)N)NC(=O)[C@@H](Cc2ccccc2)NC(=O)[C@H](CCCNC(=N)N)NC(=O)[C@@H](C)NC1=O) [CTX-1211]	not met
{CH2CO}-[dA]R[dF]RFC-NH2 (thioether N-6; SMILES C[C@H]1NC(=O)CSC[C@@H](C(N)=O)NC(=O)[C@H](Cc2ccccc2)NC(=O)[C@H](CCCNC(=N)N)NC(=O)[C@@H](Cc2ccccc2)NC(=O)[C@H](CCCNC(=N)N)NC1=O) [CTX-1657]	met
{CH2CO}-GH[dF]RWC-NH2 (thioether N-6; SMILES N=C(N)NCCC[C@@H]1NC(=O)[C@@H](Cc2ccccc2)NC(=O)[C@H](Cc2c[nH]cn2)NC(=O)CNC(=O)CSC[C@@H](C(N)=O)NC(=O)[C@H](Cc2c[nH]c3ccccc23)NC1=O) [CTX-1644]	not met
